target.under.test: C. difficile toxin B from strain VPI10463 (ATCC 43255), toxinotype 0 (Clostridium difficile, UniProt P18177 2-2366)
Sequence (P18177 2-2366 limits assumed): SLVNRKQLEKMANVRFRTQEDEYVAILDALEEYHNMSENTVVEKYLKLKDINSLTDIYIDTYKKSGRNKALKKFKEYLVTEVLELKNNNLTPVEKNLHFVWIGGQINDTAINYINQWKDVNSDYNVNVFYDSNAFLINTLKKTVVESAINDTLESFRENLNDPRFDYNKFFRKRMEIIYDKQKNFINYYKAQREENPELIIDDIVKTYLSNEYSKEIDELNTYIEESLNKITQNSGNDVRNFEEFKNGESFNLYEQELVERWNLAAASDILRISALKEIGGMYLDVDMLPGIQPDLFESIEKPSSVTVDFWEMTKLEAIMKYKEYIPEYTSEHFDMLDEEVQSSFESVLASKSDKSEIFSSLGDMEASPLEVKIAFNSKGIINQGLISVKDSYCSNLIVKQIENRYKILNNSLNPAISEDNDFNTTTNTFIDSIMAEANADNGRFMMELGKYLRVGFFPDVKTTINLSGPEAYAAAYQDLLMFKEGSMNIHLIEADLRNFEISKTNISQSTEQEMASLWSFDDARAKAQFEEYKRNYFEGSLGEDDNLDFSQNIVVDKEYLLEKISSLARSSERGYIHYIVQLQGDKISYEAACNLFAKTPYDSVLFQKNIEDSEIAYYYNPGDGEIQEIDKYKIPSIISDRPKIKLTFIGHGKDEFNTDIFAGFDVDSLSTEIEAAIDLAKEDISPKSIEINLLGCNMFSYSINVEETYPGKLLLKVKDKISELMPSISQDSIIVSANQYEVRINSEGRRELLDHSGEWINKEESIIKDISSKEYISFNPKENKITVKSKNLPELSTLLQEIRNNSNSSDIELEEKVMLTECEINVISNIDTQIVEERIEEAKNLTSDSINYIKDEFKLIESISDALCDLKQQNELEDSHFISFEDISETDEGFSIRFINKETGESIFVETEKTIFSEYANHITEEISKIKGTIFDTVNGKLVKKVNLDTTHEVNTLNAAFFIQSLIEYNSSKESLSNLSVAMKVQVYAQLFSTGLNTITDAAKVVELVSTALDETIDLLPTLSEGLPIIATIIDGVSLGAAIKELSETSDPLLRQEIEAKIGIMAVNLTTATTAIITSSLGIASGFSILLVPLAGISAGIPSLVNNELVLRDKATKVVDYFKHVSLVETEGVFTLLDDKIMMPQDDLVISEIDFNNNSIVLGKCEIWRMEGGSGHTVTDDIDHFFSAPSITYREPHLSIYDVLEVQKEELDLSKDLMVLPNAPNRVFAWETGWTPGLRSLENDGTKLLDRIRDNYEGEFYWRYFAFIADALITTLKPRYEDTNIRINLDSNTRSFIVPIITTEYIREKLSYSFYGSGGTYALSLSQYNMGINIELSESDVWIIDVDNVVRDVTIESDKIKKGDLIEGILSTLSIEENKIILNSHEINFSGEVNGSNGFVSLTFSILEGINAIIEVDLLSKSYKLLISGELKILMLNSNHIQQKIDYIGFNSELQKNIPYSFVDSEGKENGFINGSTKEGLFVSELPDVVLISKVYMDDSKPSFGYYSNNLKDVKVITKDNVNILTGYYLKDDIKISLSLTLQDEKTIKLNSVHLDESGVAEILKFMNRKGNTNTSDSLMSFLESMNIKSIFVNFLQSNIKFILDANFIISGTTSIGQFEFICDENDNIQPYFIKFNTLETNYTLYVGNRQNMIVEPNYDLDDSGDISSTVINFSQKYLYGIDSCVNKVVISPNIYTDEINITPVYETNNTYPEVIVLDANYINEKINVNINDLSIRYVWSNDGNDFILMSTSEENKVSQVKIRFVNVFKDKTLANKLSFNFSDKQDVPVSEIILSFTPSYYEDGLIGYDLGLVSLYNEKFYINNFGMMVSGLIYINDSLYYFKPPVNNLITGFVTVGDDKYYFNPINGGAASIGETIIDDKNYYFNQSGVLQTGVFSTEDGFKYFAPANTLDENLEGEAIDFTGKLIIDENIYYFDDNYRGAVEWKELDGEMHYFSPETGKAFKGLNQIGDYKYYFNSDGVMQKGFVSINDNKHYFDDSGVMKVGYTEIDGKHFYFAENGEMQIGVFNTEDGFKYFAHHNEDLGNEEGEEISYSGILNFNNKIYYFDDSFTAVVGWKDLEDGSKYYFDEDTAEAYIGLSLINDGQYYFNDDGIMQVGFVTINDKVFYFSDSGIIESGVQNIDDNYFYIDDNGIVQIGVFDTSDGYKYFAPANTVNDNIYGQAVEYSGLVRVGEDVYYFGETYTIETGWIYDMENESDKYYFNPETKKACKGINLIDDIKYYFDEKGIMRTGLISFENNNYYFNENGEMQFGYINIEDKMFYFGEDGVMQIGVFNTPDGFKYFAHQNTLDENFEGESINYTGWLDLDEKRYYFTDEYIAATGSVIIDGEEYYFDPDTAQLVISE
measurement.protocol: cell-based or functional assay
measurement.kind: % completion TEER (T-84 cells) (%)
Report the figure in % without appending any unit label.

Input line: % completion TEER (T-84 cells) for B4 antibody (antibody, V domains shown) VH: EVQLVESGGGLVKPGGSLRVSCAASGFTFSSYSMNWIRQAPGKGLEWVSSISSNSSYIYYADSVKGRFTISRDNAKNSLYLQMNSLRAEDTAVYYCARDRDYSNYLTAWGQGTLVTVSS VL: QSVLTQPPSVSGAPGQRVTISCTGSSSNIGAGYDVHWYRQLPGTAPKLLIYGKNNRPSGVPNRFSGSKSGTSASLAITGLQAEDEADYYCQSYDSSLSGSVFGGGTKLTVLG ?
Output line: 93
